organism: Rattus norvegicus; assay: Open TG-GATES - Regimen: Single; type: toxicity, organism-based, Sprague-Dawley; design: regimen Single, gender Male, age 6 weeks; details: in vivo, po, 0 mg/kg, 24 h, tissue Blood, route gavage, dose level Control
Field: Ret. Provide a value for each of the compounds that follow.
The reply should be a number in %, with the unit left off.

Asked: Name the recorded Ret for Clc1c(Cl)c(Cl)c(Cl)c(Cl)c1Cl [PERCHLOROBENZENE] .
Given back: 6.2

Asked: Name the recorded Ret for COc1cc([C@@H]2c3cc4c(cc3[C@@H](O[C@@H]3O[C@@H]5CO[C@@H](C)O[C@H]5[C@H](O)[C@H]3O)[C@H]3COC(=O)[C@H]23)OCO4)cc(OC)c1O [ETOPOSIDE] .
Given back: 8.8

Asked: Name the recorded Ret for C#C[C@]1(O)CC[C@H]2[C@@H]3CCC4=Cc5oncc5C[C@]4(C)[C@H]3CC[C@@]21C [DANAZOL] .
Given back: 7.3

Asked: Name the recorded Ret for `CCOC(=O)[C@H](CCc1ccccc1)N[C@@H](C)C(=O)N1CCC[C@H]1C(=O)O` .
Given back: 8.3

Asked: Name the recorded Ret for CC(=O)Nc1nnc(S(N)(=O)=O)s1 [ACETAZOLAMIDE] .
Given back: 7.9

Asked: Name the recorded Ret for Cc1cccc(Nc2ccccc2C(=O)O)c1C [MEFENAMIC ACID] .
Given back: 6.7

Asked: Name the recorded Ret for C1CCC(C(CC2CCCCN2)C2CCCCC2)CC1 (configuration not stated) [PERHEXILINE] .
Given back: 7.2

###

organism: Rattus norvegicus; test: Open TG-GATES - Regimen: Single; format: toxicity, organism-based, Sprague-Dawley; set-up: regimen Single, gender Male, age 6 weeks; settings: in vivo, po, 0 mg/kg, 3 h, route gavage, dose level Control
Field: TERMINAL_BW. Provide a value for each of the compounds that follow.
The reply should be a number in g, with the unit left off.

Asked: Name the recorded TERMINAL_BW for C1CCC(C(CC2CCCCN2)C2CCCCC2)CC1 (stereo not given) .
Given back: 206.4

Asked: Name the recorded TERMINAL_BW for `C#C[C@]1(O)CC[C@H]2[C@@H]3CCC4=Cc5oncc5C[C@]4(C)[C@H]3CC[C@@]21C` .
Given back: 212.9

Asked: Name the recorded TERMINAL_BW for COc1cc([C@@H]2c3cc4c(cc3[C@@H](O[C@@H]3O[C@@H]5CO[C@@H](C)O[C@H]5[C@H](O)[C@H]3O)[C@H]3COC(=O)[C@H]23)OCO4)cc(OC)c1O [ETOPOSIDE] .
Given back: 199.4

Asked: Name the recorded TERMINAL_BW for `Cc1cccc(Nc2ccccc2C(=O)O)c1C` .
Given back: 216.3

Asked: Name the recorded TERMINAL_BW for `Clc1c(Cl)c(Cl)c(Cl)c(Cl)c1Cl` .
Given back: 219.4

Asked: Name the recorded TERMINAL_BW for CC(CN1c2ccccc2Sc2ccccc21)N(C)C (stereo not given) .
Given back: 213.5

Asked: Name the recorded TERMINAL_BW for `CCOC(=O)[C@H](CCc1ccccc1)N[C@@H](C)C(=O)N1CCC[C@H]1C(=O)O` .
Given back: 219.5

Asked: Name the recorded TERMINAL_BW for `CN(C)[C@@H]1C(O)=C(C(N)=O)C(=O)[C@@]2(O)C(O)=C3C(=O)c4c(O)cccc4[C@@](C)(O)[C@H]3C[C@@H]12` .
Given back: 187

Asked: Name the recorded TERMINAL_BW for CC(=O)Nc1nnc(S(N)(=O)=O)s1 [ACETAZOLAMIDE] .
Given back: 214.4

Asked: Name the recorded TERMINAL_BW for `CN1C(C(=O)Nc2ccccn2)=C(O)c2sc(Cl)cc2S1(=O)=O` .
Given back: 223
